Species on record: Rattus norvegicus
MEASUREMENT DESCRIPTION: Ratio of Ki for Nicotinic acetylcholine receptor alpha-7 and Vesicular monoamine transporter ([…])
ASSAY READOUT: Ki ratio

Examples from the recorded data:
[
  {
    "QUERY SMILES": "CN1[C@@H](CCc2ccc3ccccc3c2)CCC[C@H]1CCc1ccc2ccccc2c1",
    "ASSAY READOUT": "Ki ratio",
    "REPORTED": "> 49.3"
  },
  {
    "QUERY SMILES": "CN1[C@@H](CCc2cccc3ccccc23)CCC[C@H]1CCc1cccc2ccccc12",
    "ASSAY READOUT": "Ki ratio",
    "REPORTED": "> 159"
  }
]

Q) Identify measured Ki ratio corresponding to `CN1[C@H](/C=C/c2ccccc2)CCC[C@H]1/C=C/c1ccccc1`
A) > 5.2

Q) Identify measured Ki ratio corresponding to `C[N+]1(C)[C@H](CCc2ccccc2)CCC[C@H]1CCc1ccccc1`
A) 0.1

Q) Identify measured Ki ratio corresponding to `c1ccc2c(CC[C@H]3CCC[C@@H](CCc4cccc5ccccc45)N3)cccc2c1`
A) > 21.4

Q) Identify measured Ki ratio corresponding to `C(=C\[C@@H]1CCC[C@@H](/C=C/c2ccccc2)N1)/c1ccccc1.C(=C\[C@H]1CCC[C@H](/C=C/c2ccccc2)N1)/c1ccccc1`
A) > 19.3

Q) Identify measured Ki ratio corresponding to `C(=C\[C@@H]1CCC[C@H](/C=C/c2ccccc2)N1)/c1ccccc1`
A) > 48.1

Q) Identify measured Ki ratio corresponding to `CN[C@H](CCCCCCc1ccccc1)CCc1ccccc1`
A) > 25.2

Q) Identify measured Ki ratio corresponding to `C[N+]1(C)[C@H](/C=C/c2ccccc2)CCC[C@@H]1/C=C/c1ccccc1`
A) < 0.3

---

Species: Rattus norvegicus
MEASUREMENT DESCRIPTION: Ratio of Ki for Nicotinic acetylcholine receptor alpha4-beta2 and Vesicular Monoamine Transporter ([…])
Below is a list of entries, each paired with its recorded Ki ratio value.

Examples from the recorded data:
[
  {
    "QUERY SMILES": "C[N+]1(C)[C@H](CCc2ccccc2)CCC[C@H]1CCc1ccccc1",
    "REPORTED": 0.7
  },
  {
    "QUERY SMILES": "CN(C/C=C/c1ccccc1)C/C=C/c1ccccc1",
    "REPORTED": "> 42.2"
  }
]

Q) Identify measured Ki ratio corresponding to `CN1[C@H](/C=C/c2ccccc2)CCC[C@@H]1/C=C/c1ccccc1`
A) 1.2

Q) Identify measured Ki ratio corresponding to `CN1[C@H](/C=C/c2ccccc2)CCC[C@H]1/C=C/c1ccccc1`
A) > 5.2

Q) Identify measured Ki ratio corresponding to `CN1[C@@H](/C=C/c2ccccc2)CCC[C@@H]1/C=C/c1ccccc1`
A) > 14.1

Q) Identify measured Ki ratio corresponding to `CN[C@H](CCCCCCc1ccccc1)CCc1ccccc1`
A) > 25.2

Q) Identify measured Ki ratio corresponding to `C[N+]1(C)[C@@H](CCc2ccccc2)CCC[C@H]1CCc1ccccc1`
A) 1.5

Q) Identify measured Ki ratio corresponding to `CN(CCCc1ccccc1)CCCc1ccccc1`
A) > 32.3

---

SYSTEM TESTED: Synaptic vesicular amine transporter (Rattus norvegicus)
Sequence (Q01827 whole entry): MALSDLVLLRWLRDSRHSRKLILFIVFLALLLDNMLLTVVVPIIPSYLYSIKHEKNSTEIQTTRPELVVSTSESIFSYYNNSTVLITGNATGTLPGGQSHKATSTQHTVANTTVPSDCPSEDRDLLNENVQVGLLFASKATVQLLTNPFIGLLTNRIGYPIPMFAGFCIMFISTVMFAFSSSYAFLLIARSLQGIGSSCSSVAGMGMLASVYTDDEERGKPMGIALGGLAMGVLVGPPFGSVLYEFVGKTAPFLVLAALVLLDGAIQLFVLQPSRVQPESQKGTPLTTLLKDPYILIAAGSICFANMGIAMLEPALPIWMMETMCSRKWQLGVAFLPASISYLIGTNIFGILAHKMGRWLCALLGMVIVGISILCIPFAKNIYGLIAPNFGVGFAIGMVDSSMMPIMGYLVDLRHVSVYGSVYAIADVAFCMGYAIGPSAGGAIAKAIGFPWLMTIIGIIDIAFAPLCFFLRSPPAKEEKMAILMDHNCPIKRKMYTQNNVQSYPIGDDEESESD
Threshold check on Ki: strictly below 4 µM is criterion met; on or above 4 µM is criterion not met.

[
  {
    "QUERY SMILES": "CN1[C@H](/C=C/c2ccccc2)CCC[C@@H]1/C=C/c1ccccc1",
    "CLASS": "criterion not met"
  }
]

Q) Input `c1ccc2cc(CC[C@H]3CCC[C@@H](CCc4ccc5ccccc5c4)N3)ccc2c1` ; condition: Ki strictly below 4 µM. Does it hold?
A) criterion not met

Q) Input `CN1[C@@H](CCc2cccc3ccccc23)CCC[C@H]1CCc1cccc2ccccc12` ; condition: Ki strictly below 4 µM. Does it hold?
A) criterion met
